Reference source: ChEMBL document CHEMBL1143556

Biological target: Peroxisome proliferator-activated receptor gamma (Homo sapiens, UniProt P37231)
Sequence (P37231 whole entry): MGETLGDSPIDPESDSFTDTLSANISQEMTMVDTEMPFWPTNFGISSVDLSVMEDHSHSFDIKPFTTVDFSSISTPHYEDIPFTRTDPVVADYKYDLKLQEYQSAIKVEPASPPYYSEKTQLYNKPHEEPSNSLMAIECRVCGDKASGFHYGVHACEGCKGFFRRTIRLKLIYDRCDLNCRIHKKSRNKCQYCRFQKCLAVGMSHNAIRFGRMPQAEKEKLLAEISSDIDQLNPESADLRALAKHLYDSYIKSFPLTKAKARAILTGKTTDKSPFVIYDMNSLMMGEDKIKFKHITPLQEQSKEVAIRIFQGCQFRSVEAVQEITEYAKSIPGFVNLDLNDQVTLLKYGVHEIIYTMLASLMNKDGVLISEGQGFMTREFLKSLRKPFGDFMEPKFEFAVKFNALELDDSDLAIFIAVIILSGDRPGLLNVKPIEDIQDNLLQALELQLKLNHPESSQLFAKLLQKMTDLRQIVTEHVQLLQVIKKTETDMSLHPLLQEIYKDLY
Assay: Inhibition of human Peroxisome proliferator activated receptor gamma
Please go through the items and note down their IC50.
One number for each entry, in nM.

CCCCCCCN(CCc1ccc(O[C@@](C)(CC)C(=O)O)cc1)C(=O)Nc1ccc(F)cc1F: 316

Proceeding to the next compound to report its IC50.
Entry `Cc1oc(-c2ccccc2)nc1CCOc1ccc(CN(CC(=O)O)Cc2ccccc2)cc1` , IC50 reported as 4800

----------
Biological target: Peroxisome proliferator-activated receptor alpha (Homo sapiens, UniProt Q07869)
Sequence (Q07869 whole entry): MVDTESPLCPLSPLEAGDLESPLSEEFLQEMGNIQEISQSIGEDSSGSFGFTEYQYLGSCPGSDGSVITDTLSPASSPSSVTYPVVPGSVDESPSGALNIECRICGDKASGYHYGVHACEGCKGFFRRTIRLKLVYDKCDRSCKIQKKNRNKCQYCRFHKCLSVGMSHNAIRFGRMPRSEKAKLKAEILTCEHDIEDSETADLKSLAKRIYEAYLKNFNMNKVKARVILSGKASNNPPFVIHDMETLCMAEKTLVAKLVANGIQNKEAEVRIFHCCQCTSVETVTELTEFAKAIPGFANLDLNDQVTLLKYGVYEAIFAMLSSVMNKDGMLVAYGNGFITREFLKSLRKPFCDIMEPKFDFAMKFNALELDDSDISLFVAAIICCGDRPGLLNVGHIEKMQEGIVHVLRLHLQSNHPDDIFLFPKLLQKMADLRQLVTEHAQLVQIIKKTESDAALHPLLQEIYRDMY
Assay: Effective concentration against human Peroxisome proliferator activated receptor alpha
readout kind: pEC50
Answers are plain numbers, as −log10 of the molar value.

COc1ccc(OC(=O)N(CC(=O)O)Cc2ccc(OCCc3nc(-c4ccccc4)oc3C)cc2)cc1: 6.49

pEC50 reading for `Cc1oc(-c2ccccc2)nc1CCOc1ccc(CN(CC(=O)O)Cc2ccccc2)cc1` : 7.70

----------
Target: Peroxisome proliferator-activated receptor alpha (Homo sapiens, UniProt Q07869)
Sequence (Q07869 whole entry): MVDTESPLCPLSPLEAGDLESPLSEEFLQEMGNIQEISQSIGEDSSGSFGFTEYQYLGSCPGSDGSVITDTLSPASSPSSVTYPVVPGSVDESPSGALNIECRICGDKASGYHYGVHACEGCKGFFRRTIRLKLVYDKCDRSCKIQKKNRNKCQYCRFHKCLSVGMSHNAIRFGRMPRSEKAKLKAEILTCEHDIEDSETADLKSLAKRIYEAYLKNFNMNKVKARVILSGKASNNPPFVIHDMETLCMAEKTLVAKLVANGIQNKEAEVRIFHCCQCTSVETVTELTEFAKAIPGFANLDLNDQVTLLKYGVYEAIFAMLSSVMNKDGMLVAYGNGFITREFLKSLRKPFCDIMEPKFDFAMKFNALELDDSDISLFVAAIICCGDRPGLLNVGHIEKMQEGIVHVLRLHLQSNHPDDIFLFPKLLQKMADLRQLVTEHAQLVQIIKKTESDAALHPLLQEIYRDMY
Test: Inhibition of human Peroxisome proliferator activated receptor alpha
For each entry below, report its pIC50 value.
Numbers only, as −log10 of the molar value.

COc1ccc(OC(=O)N(CC(=O)O)Cc2ccc(OCCc3nc(-c4ccccc4)oc3C)cc2)cc1: 6.60
Cc1oc(-c2ccccc2)nc1CCOc1ccc(CN(CC(=O)O)Cc2ccccc2)cc1: 5.85

Moving on to another molecule below.
For reference, reported pIC50 for `CCCCCCCN(CCc1ccc(O[C@@](C)(CC)C(=O)O)cc1)C(=O)Nc1ccc(F)cc1F` stands at 6.27
